# TARGET_SYSTEM: Prostaglandin E2 receptor EP1 subtype (Mus musculus)
# Sequence (P35375 whole entry): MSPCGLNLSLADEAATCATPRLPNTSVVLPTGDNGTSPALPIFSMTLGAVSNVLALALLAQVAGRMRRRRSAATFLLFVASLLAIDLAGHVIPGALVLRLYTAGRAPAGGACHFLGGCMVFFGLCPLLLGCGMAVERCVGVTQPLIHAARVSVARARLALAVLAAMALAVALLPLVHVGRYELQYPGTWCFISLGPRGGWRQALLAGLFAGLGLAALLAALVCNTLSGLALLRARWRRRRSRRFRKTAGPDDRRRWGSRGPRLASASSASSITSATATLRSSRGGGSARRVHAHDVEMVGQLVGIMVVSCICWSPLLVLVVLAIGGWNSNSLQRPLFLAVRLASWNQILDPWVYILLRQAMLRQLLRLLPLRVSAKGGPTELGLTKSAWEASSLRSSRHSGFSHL
pKi: −log10 of the molar value.
RECORDED_METRIC: pKi

P. O=C(O)CCCSCCN1C(=O)CC[C@@H]1/C=C/[C@@H](O)Cc1cccc(N2Cc3ccccc3C2)c1
Q. Cc1ccc(-c2cccc(C[C@H](O)/C=C/[C@H]3CCC(=O)N3CCSc3nc(C(=O)O)cs3)c2)c(C)c1
input: Between P and Q , which one shows the larger pKi value? Provide the label of your selected option as the answer.
output: Q
